experimentalSystem: recombinant human KDAC1 (Homo sapiens)
Construct: purchased BPS Bioscience
Sequence (Q13547 whole entry): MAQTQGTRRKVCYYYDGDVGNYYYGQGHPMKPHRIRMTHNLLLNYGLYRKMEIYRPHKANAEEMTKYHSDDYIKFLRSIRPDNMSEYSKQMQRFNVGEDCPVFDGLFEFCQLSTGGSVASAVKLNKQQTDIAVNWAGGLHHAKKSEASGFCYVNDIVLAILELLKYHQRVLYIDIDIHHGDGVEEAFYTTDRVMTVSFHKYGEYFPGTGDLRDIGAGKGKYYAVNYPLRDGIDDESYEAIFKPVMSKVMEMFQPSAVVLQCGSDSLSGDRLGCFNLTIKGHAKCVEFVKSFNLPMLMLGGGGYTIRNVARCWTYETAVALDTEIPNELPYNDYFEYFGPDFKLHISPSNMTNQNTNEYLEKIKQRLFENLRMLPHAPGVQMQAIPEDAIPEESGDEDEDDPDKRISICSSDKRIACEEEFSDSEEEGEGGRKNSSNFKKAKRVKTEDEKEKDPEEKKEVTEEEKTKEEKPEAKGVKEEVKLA
test: KDAC inhibition assay, Caliper EZ Reader II
Assay type: biochemical
outcomeMeasure: IC50 (nM)
Enter your answer as a number in nM; do not include the unit.

Exam item: What IC50 value was documented for this compound, CCCCCCCC(=O)SCC/C=C/[C@@H]1CC(=O)NCc2nc(cs2)C2=N[C@@](C)(CS2)C(=O)N[C@@H](C(C)C)C(=O)O1 ?
Marked response: 2330

====

experimentalSystem: recombinant human KDAC1 (Homo sapiens)
Construct: purchased BPS Bioscience
test: KDAC inhibition assay, Caliper EZ Reader II
Type: biochemical
testConditions: 10-point dose curve from 30 μM
Positions of bridges follow the written chain, without caps; N, C: chain ends. Non-standard residues stand in square brackets, D forms with d. Residues, ends and D or L forms follow the SMILES beside them. *: point of attachment. GABA = NCCCC(=O)O; NHOH = ON*
outcomeMeasure: IC50

Exam item: What IC50 value was documented for this compound, CC(=O)SCC/C=C/[C@@H]1CC(=O)NCc2cc(ccn2)C2=N[C@@](C)(CS2)C(=O)N[C@@H](C(C)C)C(=O)O1 [SD-L-256, reference compound] ?
Marked response: 3.48 µM

Exam item: What do you get for CC(C)[C@@H]1NC(=O)[C@H]2CCCN2C(=O)[C@@H]2CCCN2C(=O)C[C@@H](C(=O)NCCCC(=O)NO)NC1=O [Compound 25a] (P[dP]VD[GABA]-{NHOH}; lactam N-4) ?
Marked response: > 30 µM

Exam item: What do you get for Nc1ccccc1NC(=O)c1ccc(-c2cn(CCc3ccsc3)nn2)cc1 [Compound T247, reference compound] ?
Marked response: 1.11 µM
